condition.description: [M+Na]+; instrument: TW; calibrated with polyalanine and drug standards
Here the recorded collision cross section (N2) is given for each entry.
property: collision cross section (N2) (Å²)

smiles_structure=CC(=O)N[C@@H](CCC(=O)O)C(=O)O property="collision cross section (N2)" observed_result=141.7
smiles_structure=CC[C@H](C)C(=O)O[C@H]1C[C@@H](C)C=C2C=C[C@H](C)[C@H](CC[C@@H]3C[C@@H](O)CC(=O)O3)[C@H]21 property="collision cross section (N2)" observed_result=202
smiles_structure=OC[C@H]1O[C@@](CO)(O[C@H]2O[C@H](CO)[C@@H](O)[C@H](O)[C@H]2O)[C@@H](O[C@H]2O[C@H](CO)[C@@H](O)[C@H](O)[C@H]2O)[C@@H]1O property="collision cross section (N2)" observed_result=199.2

====

condition.description: [M-H]-; instrument: DT; stepped-field
Here the recorded collision cross section (N2) is given for each entry.
property: collision cross section (N2) (Å²)

compound="N[C@@H](CSSC[C@H](N)C(=O)O)C(=O)O [L-Cystine]" observed_result=144.39
compound="CCCCCC/C=C\\CCCCCCCC(=O)O [Palmitoleic acid]" observed_result=167.95
compound="CCCCC/C=C\\C/C=C\\CCCCCCCC(=O)O [Linoleic acid]" observed_result=175.69

====

condition.description: [M+Na]+; instrument: TW; calibrated with phosphatidylcholines (ESI+) and phosphatidylethanolamines (ESI-)
property: collision cross section (N2)

compound="CCCCCCCCCCCCC=CC[C@@H](O)[C@H](CO[C@@H]1O[C@H](CO)[C@@H](O)C(O)C1O)NC(=O)CCCCCCCCCCCCCCCCCCCCC (some centres undefined)" observed_result="294.3 Å²"
compound=CCCC/C=C\CCCCCCCC(=O)OC[C@H](COP(=O)(O)OC[C@@H](O)CO)OC(=O)CCCCCCCCC/C=C\CCCCCCCCCC observed_result="284.7 Å²"
compound=CCCCCCCCCCCCCCCC/C=C\OC[C@@H](O)COP(=O)([O-])OCC[NH3+] observed_result="222 Å²"
compound=CCCCCCCCCC/C=C\CCCCCCCCCC(=O)O[C@H](COC(=O)CCCCCCCCCCC)COP(=O)(O)OC[C@@H](O)CO observed_result="281.1 Å²"
compound="CCCCCCCCCCCCC=CC[C@@H](O)[C@H](CO[C@@H]1O[C@H](CO)[C@@H](O)C(O)C1O)NC(=O)CC=CCCCCCCCCCCCCCCCCCC (some centres undefined)" observed_result="290.1 Å²"
compound="CCCCC/C=C\\C/C=C\\C/C=C\\CCCCC(=O)O[C@H](COC(=O)CCCCCCCCC/C=C\\C/C=C\\CCCCC)COP(=O)(O)O[C@H]1C(O)C(O)C(O)[C@@H](O)C1O (some centres undefined)" observed_result="294.5 Å²"
compound="CC/C=C\\C/C=C\\C/C=C\\C/C=C\\CCCCC(=O)OC[C@H](COP(=O)(O)O[C@H]1C(O)C(O)C(O)[C@@H](O)C1O)OC(=O)CCCCCCCCC/C=C\\CCCCCCCCCC (some centres undefined)" observed_result="301.1 Å²"
compound=CCCCCCCCCCCCCCCCCCCC(=O)OC[C@H](COP(=O)(O)OC[C@@H](O)CO)OC(=O)CCCCCCCCCCCCC observed_result="282.2 Å²"
compound="CCCCC/C=C\\C/C=C\\C/C=C\\CCCCCCC(=O)O[C@H](COC(=O)CCCC/C=C\\C/C=C\\C/C=C\\CCCCC)COP(=O)(O)O[C@H]1C(O)C(O)C(O)[C@@H](O)C1O (some centres undefined)" observed_result="292.4 Å²"
compound=CC/C=C\C/C=C\C/C=C\C/C=C\C/C=C\CCCC(=O)OC[C@H](COP(=O)(O)OC[C@@H](O)CO)OC(=O)CCCCCCCCC/C=C\C/C=C\CCCCC observed_result="288.3 Å²"
compound=CCCCCCCCCCCCCCCC(=O)O[C@H](CO)COP(=O)(O)OCCN observed_result="218.8 Å²"
compound="CCCCCCCCCCCCC=CC[C@@H](O)[C@H](CO[C@@H]1O[C@H](CO)[C@@H](O)C(O)C1O)NC(=O)CCCCCCCCCCCCCCCCC (some centres undefined)" observed_result="282.2 Å²"
compound=CCCCCCCC/C=C\CCCCCCCCCC(=O)O[C@H](COC(=O)CCCCCCCCCCC)COP(=O)(O)OC[C@@H](O)CO observed_result="274.1 Å²"
compound="CC/C=C\\C/C=C\\C/C=C\\C/C=C\\C/C=C\\C/C=C\\CCC(=O)O[C@H](COC(=O)CCCCCCCCCCCCCCCCC)COP(=O)(O)O[C@H]1C(O)C(O)C(O)[C@@H](O)C1O (some centres undefined)" observed_result="299.8 Å²"
compound=CCCCC/C=C\C/C=C\C/C=C\C/C=C\CCCC(=O)O[C@H](CO/C=C\CCCCCCCCCCCCCCCCCC)COP(=O)(O)OCCN observed_result="290.1 Å²"
compound="CCCCCCCCCCCCC=CC[C@@H](O)[C@H](CO[C@@H]1O[C@H](CO)[C@@H](O)C(O)C1O)NC(=O)CCCCCCCCCCCCCCCCCCCCCCC (some centres undefined)" observed_result="299.1 Å²"
compound=CC/C=C\C/C=C\C/C=C\CCCCCCCC(=O)O[C@H](COC(=O)CCCCCCCCC/C=C\CCCCCCCC)COP(=O)(O)OC[C@@H](O)CO observed_result="287.8 Å²"
compound="CCCCCCCCCCCCC=CC[C@@H](O)[C@H](CO[C@@H]1O[C@H](CO)[C@@H](O)C(O)C1O)NC(=O)CC=CCCCCCCCCCCCCCCCCCCCCCC (some centres undefined)" observed_result="304.7 Å²"
compound="CCCC/C=C\\CCCCCCCC(=O)OC[C@H](COP(=O)(O)O[C@H]1C(O)C(O)C(O)[C@@H](O)C1O)OC(=O)CCCCCCCCC/C=C\\CCCCCCCCCC (some centres undefined)" observed_result="293.3 Å²"
